Consider the following compounds and their measured responders at 30 mg/kg readings.
Test system: DBA/2 mice
PROTOCOL: DBA2 mouse model of anticonvulsant efficacy (sound-induced seizures)
Format: in vivo
MEASUREMENT_PARAMETERS: Mus musculus; 30 mg/kg PO; 2h; read-out: Anticonvulsant % Protect* 2h
ENDPOINT_NAME: responders at 30 mg/kg (%)

[
  {
    "COMPOUND": "CCCCC(C(C)C)C(CN)CC(=O)O (stereo not shown)",
    "RESULT": 0
  },
  {
    "COMPOUND": "CCC(C(C)C)C(CN)CC(=O)O (stereo not shown)",
    "RESULT": 0
  },
  {
    "COMPOUND": "CC(C)C(c1ccccc1)C(CN)CC(=O)O (stereo not shown)",
    "RESULT": 0
  },
  {
    "COMPOUND": "CCC(C)CC(CN)CC(=O)O (racemic)",
    "RESULT": 100
  }
]
